Molecular target: human serum albumin (HSA) (Homo sapiens)
Assay: Isothermal titration calorimetry (ITC) of binding of catechins and analogs to HSA
Design: purchased Sigma-Aldrich Japan (Tokyo, Japan)
Conditions: Table 1; ITC, 298 K, 50 mM sodium phosphate pH 6.8
readout.name: ΔH (kcal/mol)

Guide cases for ΔH, answers given:
# molecule, ΔH (kcal/mol)
measured = [
    ("Oc1cc(O)c2c(c1)O[C@@H](c1ccc(O)c(O)c1)[C@H](O)C2 [C, (+)-catechin]", -0.3),
    ("Oc1cc(O)c2c(c1)O[C@@H](c1cc(O)c(O)c(O)c1)[C@H](O)C2 [GC, (−)-gallocatechin]", -1.1),
]

A = O=C(O[C@@H]1Cc2c(O)cc(O)cc2O[C@@H]1c1ccc(O)c(O)c1)c1cc(O)c(O)c(O)c1 [ECg, (−)-epicatechin gallate]
B = CCOC(=O)c1cc(O)c(O)c(O)c1 [EtGa, Ethyl gallate]
INPUT: Please let me know which one, A or B , has a lower measured ΔH value. Kindly state the label of the option you pick.
OUTPUT: A
(A: -5.1 kcal/mol, B: -1.4 kcal/mol)

---

Target: human serum albumin (HSA) (Homo sapiens, UniProt P02768)
Sequence (P02768 25-609): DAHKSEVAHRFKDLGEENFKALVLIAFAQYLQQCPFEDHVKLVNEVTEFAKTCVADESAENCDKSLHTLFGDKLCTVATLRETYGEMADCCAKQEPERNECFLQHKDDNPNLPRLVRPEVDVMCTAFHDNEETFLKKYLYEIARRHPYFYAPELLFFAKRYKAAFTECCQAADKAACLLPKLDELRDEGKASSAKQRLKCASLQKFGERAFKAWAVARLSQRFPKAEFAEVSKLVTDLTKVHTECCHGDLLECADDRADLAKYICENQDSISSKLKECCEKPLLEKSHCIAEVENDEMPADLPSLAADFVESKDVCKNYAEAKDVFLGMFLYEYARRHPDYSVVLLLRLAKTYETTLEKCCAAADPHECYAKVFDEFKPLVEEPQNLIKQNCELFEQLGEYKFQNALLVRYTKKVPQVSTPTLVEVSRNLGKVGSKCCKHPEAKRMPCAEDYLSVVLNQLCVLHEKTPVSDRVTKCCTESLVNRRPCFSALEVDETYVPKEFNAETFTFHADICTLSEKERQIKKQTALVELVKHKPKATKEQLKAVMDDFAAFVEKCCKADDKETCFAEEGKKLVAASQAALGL
Experiment: Isothermal titration calorimetry (ITC) of binding of catechins and analogs to HSA
Set-up: purchased Sigma-Aldrich Japan (Tokyo, Japan)
Details: Table 1; ITC, 298 K, 50 mM sodium phosphate pH 6.8
readout.name: ΔH (kcal/mol)

Below are worked cases with known answers.
# compound, readout.name, reading
records = [
    ("Oc1cc(O)c2c(c1)O[C@H](c1cc(O)c(O)c(O)c1)[C@H](O)C2 [EGC, (−)-epigallocatechin]", "ΔH", -0.6),
    ("O=C(O[C@@H]1Cc2c(O)cc(O)cc2O[C@H]1c1cc(O)c(O)c(O)c1)c1cc(O)c(O)c(O)c1 [GCg, (−)-gallocatechin gallate]", "ΔH", -3.0),
    ("O=C(O[C@@H]1Cc2c(O)cc(O)cc2O[C@@H]1c1cc(O)c(O)c(O)c1)c1cc(O)c(O)c(O)c1 [EGCg, (−)-epigallocatechin gallate]", "ΔH", -4.7),
]

1 = Oc1cc(O)c2c(c1)O[C@H](c1ccc(O)c(O)c1)[C@H](O)C2 [EC, (−)-epicatechin]
2 = O=C(O[C@@H]1Cc2c(O)cc(O)cc2O[C@H]1c1ccc(O)c(O)c1)c1cc(O)c(O)c(O)c1 [Cg, (−)-catechin gallate]
INPUT: Pick one: 1 or 2 . Which one has the lower reported ΔH? Refer to your chosen item by its label in the answer.
OUTPUT: 2

---

Target: human serum albumin (HSA) (Homo sapiens)
Experiment: Isothermal titration calorimetry (ITC) of binding of catechins and analogs to HSA
Parameters: purchased Sigma-Aldrich Japan (Tokyo, Japan)
Settings: ITC, 0.2 M NaCl versus no NaCl
readout.name: change of binding affinity with addition of 0.2 M NaCl

The examples below pair each entry with its known result.
# compound, assayed.target, reading
measured = [
    ("O=C(O[C@@H]1Cc2c(O)cc(O)cc2O[C@@H]1c1cc(O)c(O)c(O)c1)c1cc(O)c(O)c(O)c1 [EGCg, (−)-epigallocatechin gallate]", "human serum albumin (HSA) (Homo sapiens)", "decreased"),
    ("Oc1cc(O)c2c(c1)O[C@H](c1ccc(O)c(O)c1)[C@H](O)C2 [EC, (−)-epicatechin]", "human serum albumin (HSA) (Homo sapiens)", "increased"),
    ("O=C(O[C@@H]1Cc2c(O)cc(O)cc2O[C@H]1c1cc(O)c(O)c(O)c1)c1cc(O)c(O)c(O)c1 [GCg, (−)-gallocatechin gallate]", "human serum albumin (HSA) (Homo sapiens)", "decreased"),
    ("CCOC(=O)c1cc(O)c(O)c(O)c1 [EtGa, Ethyl gallate]", "human serum albumin (HSA) (Homo sapiens)", "increased"),
    ("Oc1cc(O)c2c(c1)O[C@H](c1cc(O)c(O)c(O)c1)[C@H](O)C2 [EGC, (−)-epigallocatechin]", "human serum albumin (HSA) (Homo sapiens)", "increased"),
]

Continue with the next compound.
INPUT: Fill in the blank: the reported change of binding affinity with addition of 0.2 M NaCl of O=C(O[C@@H]1Cc2c(O)cc(O)cc2O[C@@H]1c1ccc(O)c(O)c1)c1cc(O)c(O)c(O)c1 [ECg, (−)-epicatechin gallate] is ____.
OUTPUT: decreased

---

Molecular target: human serum albumin (HSA) (Homo sapiens, UniProt P02768)
Test: Differential scanning calorimetry (DSC), thermal stability of HSA–ligand complexes
Settings: DSC; HSA 50 μM, ligand 500 μM, 50 mM sodium phosphate pH 6.8; HSA alone 68.6 ± 0.1
readout.name: Tm (°C)

# compound, reading
measured = [
    ("O=C(O[C@@H]1Cc2c(O)cc(O)cc2O[C@H]1c1ccc(O)c(O)c1)c1cc(O)c(O)c(O)c1 [Cg, (−)-catechin gallate]", 71.7),
    ("Oc1cc(O)c2c(c1)O[C@@H](c1ccc(O)c(O)c1)[C@H](O)C2 [C, (+)-catechin]", 68.5),
    ("Oc1cc(O)c2c(c1)O[C@H](c1cc(O)c(O)c(O)c1)[C@H](O)C2 [EGC, (−)-epigallocatechin]", 68.8),
    ("O=C(O[C@@H]1Cc2c(O)cc(O)cc2O[C@H]1c1cc(O)c(O)c(O)c1)c1cc(O)c(O)c(O)c1 [GCg, (−)-gallocatechin gallate]", 73.3),
    ("O=C(O[C@@H]1Cc2c(O)cc(O)cc2O[C@@H]1c1cc(O)c(O)c(O)c1)c1cc(O)c(O)c(O)c1 [EGCg, (−)-epigallocatechin gallate]", 71.4),
    ("Oc1cc(O)c2c(c1)O[C@@H](c1cc(O)c(O)c(O)c1)[C@H](O)C2 [GC, (−)-gallocatechin]", 69.3),
    ("O=C(O[C@@H]1Cc2c(O)cc(O)cc2O[C@@H]1c1ccc(O)c(O)c1)c1cc(O)c(O)c(O)c1 [ECg, (−)-epicatechin gallate]", 72.2),
    ("Oc1cc(O)c2c(c1)O[C@H](c1ccc(O)c(O)c1)[C@H](O)C2 [EC, (−)-epicatechin]", 68.7),
]

---

Molecular target: human serum albumin (HSA) (Homo sapiens)
Assay: Isothermal titration calorimetry (ITC) of binding of catechins and analogs to HSA
Parameters: purchased Sigma-Aldrich Japan (Tokyo, Japan)
Details: Table 2, methylated catechin derivatives; ITC, 298 K
readout.name: −TΔS (kcal/mol)

# molecule, assayed.target, reading
measured = [
    ("O=C(O[C@@H]1Cc2c(O)cc(O)cc2O[C@@H]1c1cc(O)c(O)c(O)c1)c1cc(O)c(O)c(O)c1 [EGCg, (−)-epigallocatechin gallate]", "human serum albumin (HSA) (Homo sapiens)", -3.0),
    ("COc1cc([C@H]2Oc3cc(O)cc(O)c3C[C@H]2OC(=O)c2cc(O)c(O)c(O)c2)cc(O)c1O", "human serum albumin (HSA) (Homo sapiens)", 1.4),
]

a = COc1c(O)cc(C(=O)O[C@@H]2Cc3c(O)cc(O)cc3O[C@@H]2c2cc(O)c(O)c(O)c2)cc1O
b = COc1c(O)cc([C@H]2Oc3cc(O)cc(O)c3C[C@H]2OC(=O)c2cc(O)c(O)c(O)c2)cc1O
INPUT: Returns: the label, a or b , whose recorded −TΔS is the lower number. Mark your answer with the label of the selected entry.
OUTPUT: b

---

Biological target: human serum albumin (HSA) (Homo sapiens, UniProt P02768)
Experiment: Isothermal titration calorimetry (ITC) of binding of catechins and analogs to HSA
Parameters: purchased Sigma-Aldrich Japan (Tokyo, Japan)
Details: S2 Table; NaCl 0.2 M; read-out: KD
pKd: −log10 of the molar value.
readout.name: pKd

Below, 3 molecules whose answers are already recorded.
# molecule, pKd
rows = [
    ("CCOC(=O)c1cc(O)c(O)c(O)c1 [EtGa, Ethyl gallate]", 4.78),
    ("O=C(O[C@@H]1Cc2c(O)cc(O)cc2O[C@@H]1c1cc(O)c(O)c(O)c1)c1cc(O)c(O)c(O)c1 [EGCg, (−)-epigallocatechin gallate]", 4.56),
    ("O=C(O[C@@H]1Cc2c(O)cc(O)cc2O[C@H]1c1cc(O)c(O)c(O)c1)c1cc(O)c(O)c(O)c1 [GCg, (−)-gallocatechin gallate]", 4.73),
]

1 = O=C(O[C@@H]1Cc2c(O)cc(O)cc2O[C@@H]1c1ccc(O)c(O)c1)c1cc(O)c(O)c(O)c1 [ECg, (−)-epicatechin gallate]
2 = Oc1cc(O)c2c(c1)O[C@H](c1ccc(O)c(O)c1)[C@H](O)C2 [EC, (−)-epicatechin]
INPUT: Which value of pKd is greater, the one for 1 or the one for 2 ? Bench note: the answer is the label of the chosen record.
OUTPUT: 2

---

Target: human serum albumin (HSA) (Homo sapiens)
Experiment: Isothermal titration calorimetry (ITC) of binding of catechins and analogs to HSA
Parameters: purchased Sigma-Aldrich Japan (Tokyo, Japan)
Conditions: S2 Table; NaCl 0 M; read-out: KD
readout.name: Kd (µM)

# compound, unit.text, Kd
measured = [
    ("CCOC(=O)c1cc(O)c(O)c(O)c1 [EtGa, Ethyl gallate]", "µM", 45.7),
    ("Oc1cc(O)c2c(c1)O[C@H](c1ccc(O)c(O)c1)[C@H](O)C2 [EC, (−)-epicatechin]", "µM", 48.7),
]
